- Target of assay: Receptor-type tyrosine-protein kinase FLT3 (Homo sapiens)
- Assay remarks: Inhibition of human recombinant […] N-terminal GST-tagged FLT3 (R571 to S993 residues) assessed as residual activity using poly (Ala, Glu, Lys, Tyr) hydrobromide as substrate in presence of ATP and Ci(gamma33-P) ATP at 1 uM measured by microplate reader assay
Outcome measure: Activity

// Input: CC(C)(C)c1ccc(C(=O)Nc2cccc(-c3cc4[nH]cnc4c(Nc4ccc(C(=O)N5CCOCC5)cc4)n3)c2)cc1 . Output its Activity only.
> 100%

Kindly indicate its recorded Activity. Item: Cc1c(NC(=O)c2ccc(C(C)(C)C)cc2)cccc1-c1cc2c(ncn2C)c(Nc2ccc(C(=O)N3CCOCC3)cc2)n1
> 100%

Tell us which Activity value is on record for Cc1c(NC(=O)c2ccccn2)cccc1-c1cc2[nH]cnc2c(Nc2ccc(C(=O)N3CCOCC3)cc2)n1
> 100%
